Cited source: ChEMBL document CHEMBL1287679

# System: Pseudomonas aeruginosa
# TEST SUMMARY: Antimicrobial activity against Pseudomonas aeruginosa ATCC 27853 by broth dilution method
# Type: functional
Where a SMILES comes first, the peptide text is derived from it. [ ]: non-standard residue; d: D form. Orn = NCCC[C@H](N)C(=O)O
RESULT TYPE: MIC (µg/mL)
Give just the number in µg/mL; leave the unit off.

// query MIC value for entry CC(C)C[C@@H]1NC(=O)[C@H](CCCN)NC(=O)[C@H](C(C)C)NC(=O)[C@@H]2CCCN2C(=O)[C@@H](Cc2ccccc2)NC(=O)[C@H](CC(C)C)NC(=O)[C@H](CCCN)NC(=O)[C@H](C(C)C)NC(=O)[C@@H]2CCCN2C(=O)[C@@H](Cc2ccccc2)NC1=O [GRAMICIDIN S] (cyclo(L[dF]PV[Orn]L[dF]PV[Orn]))
32

Again, but for `CC(C)[C@@H]1NC(=O)[C@H](CCCN)NC(=O)[C@@H]2CCCN2C(=O)[C@@H](Cc2ccccc2)NC(=O)[C@H](CCCN)NC(=O)[C@H](CC23CC4CC(CC(C4)C2)C3)NC(=O)[C@H](CCCN)NC(=O)[C@H](C(C)C)NC(=O)[C@H](CCCN)NC(=O)[C@@H]2CCCN2C(=O)[C@@H](Cc2ccccc2)NC(=O)[C@H](CCCN)NC(=O)[C@H](CC23CC4CC(CC(C4)C2)C3)NC(=O)[C@H](CCCN)NC1=O`
8

Please give the result for `CC(C)[C@@H]1NC(=O)[C@H](CCCN)NC(=O)[C@@H]2CCCN2C(=O)[C@@H](Cc2ccccc2)NC(=O)[C@H](CCCN)NC(=O)[C@H](CC23CC4CC(CC(C4)C2)C3)NC(=O)[C@H](CCCN)NC(=O)[C@H](C23CC4CC(CC(C4)C2)C3)NC(=O)[C@H](CCCN)NC(=O)[C@@H]2CCCN2C(=O)[C@@H](Cc2ccccc2)NC(=O)[C@H](CCCN)NC(=O)[C@H](CC23CC4CC(CC(C4)C2)C3)NC(=O)[C@H](CCCN)NC1=O` too.
16

Lookup `CC(C)C[C@@H]1NC(=O)[C@H](CCCN)NC(=O)[C@H](C23CC4CC(CC(C4)C2)C3)NC(=O)[C@H](CCCN)NC(=O)[C@@H]2CCCN2C(=O)[C@@H](Cc2ccccc2)NC(=O)[C@H](CCCN)NC(=O)[C@H](CC(C)C)NC(=O)[C@H](CCCN)NC(=O)[C@H](C23CC4CC(CC(C4)C2)C3)NC(=O)[C@H](CCCN)NC(=O)[C@@H]2CCCN2C(=O)[C@@H](Cc2ccccc2)NC(=O)[C@H](CCCN)NC1=O`
16

---

# System: Staphylococcus aureus
# TEST SUMMARY: Antimicrobial activity against methicillin-resistant Staphylococcus aureus isolate 1110301981 by broth dilution method
# Format: functional
RESULT TYPE: MIC (µg/mL)
Express it in µg/mL; write the number only.

Recorded MIC of `CC(C)C[C@@H]1NC(=O)[C@H](CCCN)NC(=O)[C@H](C23CC4CC(CC(C4)C2)C3)NC(=O)[C@H](CCCN)NC(=O)[C@@H]2CCCN2C(=O)[C@@H](Cc2ccccc2)NC(=O)[C@H](CCCN)NC(=O)[C@H](CC23CC4CC(CC(C4)C2)C3)NC(=O)[C@H](CCCN)NC(=O)[C@H](C(C)C)NC(=O)[C@H](CCCN)NC(=O)[C@@H]2CCCN2C(=O)[C@@H](Cc2ccccc2)NC(=O)[C@H](CCCN)NC1=O` , please.
16

Continue with `CC(C)C[C@@H]1NC(=O)[C@H](CCCN)NC(=O)[C@H](C23CC4CC(CC(C4)C2)C3)NC(=O)[C@H](CCCN)NC(=O)[C@@H]2CCCN2C(=O)[C@@H](Cc2ccccc2)NC(=O)[C@H](CCCN)NC(=O)[C@H](CC(C)C)NC(=O)[C@H](CCCN)NC(=O)[C@H](C23CC4CC(CC(C4)C2)C3)NC(=O)[C@H](CCCN)NC(=O)[C@@H]2CCCN2C(=O)[C@@H](Cc2ccccc2)NC(=O)[C@H](CCCN)NC1=O`
8
